The measurements presented in this section are drawn from patent US20250320246A1.

Test system: sporadic PD patient fibroblasts
Assay: Mitochondrial membrane potential (MMP, TMRM) in sporadic PD patient fibroblasts
Format: cell-based, human
Conditions: Homo sapiens, Fibroblast, 24 h, max response with lowest dose of compound (0.06 nM), 3 sporadic PD patient fibroblasts, read-out: MMP % of vehicle, bottom %
Method: Primary fibroblast cells were cultured continuously in Glucose based medium (high glucose (4500 mg/L) Dulbecco's Modified Eagle's medium (DMEM; Sigma-Aldrich) supplemented with 10% fetal bovine serum (Sigma-Aldrich), 100 IU/mL penicillin, 100 μg/mL streptomycin (Lonza), 1 mM sodium pyruvate (Sigma-Aldrich) and 50 μg/mL uridine (Sigma-Aldrich)). […] All cells were assessed between passage 6-10. […]
In plain terms, low activity at 60 pM, meaning strictly below 90%, gives MET, and everything else gives NOT MET.

Request: Given the entry CC(C)C[C@H](N)C(=O)N1CC[C@@]2(C)[C@H](C[C@H](O)[C@@H]3[C@@H]2CC[C@]2(C)[C@@H]([C@H](C)CCCC(=O)O)CC[C@@H]32)C1 [Compound 43b] , would its reported activity at 60 pM be below 90%?
Result: MET

Request: Then what about the molecule C[C@H](CCC(=O)O)[C@H]1CC[C@H]2[C@@H]3[C@@H](O)C[C@@H]4CNCC[C@]4(C)[C@H]3CC[C@]12C.Cl [Compound 28a, hydrochloride salt] ?
Result: NOT MET

Request: Then what about the molecule CC[C@H](C)[C@H](N)C(=O)N1CC[C@@]2(C)[C@H](C[C@H](O)[C@@H]3[C@@H]2CC[C@]2(C)[C@@H]([C@H](C)CCC(=O)O)CC[C@@H]32)C1 [Compound 42a] ?
Result: MET

Request: Then what about the molecule C[C@H](CCC(=O)O)[C@H]1CC[C@H]2[C@@H]3[C@@H](O)C[C@@H]4CN(C(=O)CO)CC[C@]4(C)[C@H]3CC[C@]12C [Compound 40a] ?
Result: NOT MET

Request: Then what about the molecule C[C@H](CCCC(=O)O)[C@H]1CC[C@H]2[C@@H]3[C@@H](O)C[C@@H]4CNCC[C@]4(C)[C@H]3CC[C@]12C.Cl [Compound 28b, hydrochloride] ?
Result: NOT MET

* * *

Test system: sporadic PD patient fibroblasts
Assay: Mitochondrial membrane potential (MMP, TMRM) in sporadic PD patient fibroblasts
Type: cell-based, human
Details: Homo sapiens, Fibroblast, 24 h, max response with lowest dose of compound (0.06 nM), 3 sporadic PD patient fibroblasts, read-out: MMP % of vehicle, bottom %
Counter-ions that a name gives are not always drawn.
test readout: activity at 60 pM (%)
# output: bare number, implied unit %

Request: Field request: activity at 60 pM | item: CC[C@H](C)[C@H](N)C(=O)N1CC[C@@]2(C)[C@H](C[C@H](O)[C@@H]3[C@@H]2CC[C@]2(C)[C@@H]([C@H](C)CCCC(=O)O)CC[C@@H]32)C1 [Compound 42b]
Result: 92.2

Request: Then what about the compound CC(C)[C@H](N)C(=O)N1CC[C@@]2(C)[C@H](C[C@H](O)[C@@H]3[C@@H]2CC[C@]2(C)[C@@H]([C@H](C)CCCC(=O)O)CC[C@@H]32)C1 [Compound 41b] ?
Result: 84.6

Request: Then what about the compound C[C@H](CCCC(=O)O)[C@H]1CC[C@H]2[C@@H]3[C@@H](O)C[C@@H]4CN(C(=O)CO)CC[C@]4(C)[C@H]3CC[C@]12C [Compound 40b] ?
Result: 95.3

Request: Then what about the compound CC(C)C[C@H](N)C(=O)N1CC[C@@]2(C)[C@H](C[C@H](O)[C@@H]3[C@@H]2CC[C@]2(C)[C@@H]([C@H](C)CCC(=O)O)CC[C@@H]32)C1 [Compound 43a] ?
Result: 84.1

Request: Then what about the compound C[C@H](CCCC(=O)O)[C@H]1CC[C@H]2[C@@H]3[C@@H](O)C[C@@H]4CN(C(=O)[C@@H](N)Cc5c[nH]c6ccccc56)CC[C@]4(C)[C@H]3CC[C@]12C [Compound 44b] ?
Result: 77.8

Request: Then what about the compound C[C@H](CCC(=O)O)[C@H]1CC[C@H]2[C@@H]3[C@@H](O)C[C@@H]4CN(C(=O)[C@@H](N)Cc5ccc(O)cc5)CC[C@]4(C)[C@H]3CC[C@]12C [Compound 45a] ?
Result: 82.3

Request: Then what about the compound C[C@H](CCC(=O)O)[C@H]1CC[C@H]2[C@@H]3[C@@H](O)C[C@@H]4CN(C)CC[C@]4(C)[C@H]3CC[C@]12C [Compound 33, hydrochloride] ?
Result: 82.3

Request: Then what about the compound C[C@H](CCC(=O)O)[C@H]1CC[C@H]2[C@@H]3[C@@H](O)C[C@@H]4CN(C(=O)[C@@H](N)Cc5c[nH]c6ccccc56)CC[C@]4(C)[C@H]3CC[C@]12C [Compound 44a] ?
Result: 73.5

Request: Then what about the compound C[C@H](CCCC(=O)O)[C@H]1CC[C@H]2[C@@H]3[C@@H](O)C[C@@H]4CN(C)CC[C@]4(C)[C@H]3CC[C@]12C [Compound 31b] ?
Result: 86.5
